test system: Streptococcus pneumoniae ATCC 6303; test: In vitro agar dilution MIC, organism code XX; assay type: cell-based; settings: Table 1B, unit assumed
measurement label: MIC (µg/mL)
Answer format: numeric, µg/mL implied, no suffix.

compound="CC[C@H]1OC(=O)[C@@](C)(F)C(=O)[C@H](C)[C@@H](O[C@@H]2O[C@H](C)C[C@H](N(C)C)[C@H]2O)[C@](C)(OC/C=C/c2cnc3ccc(C=O)cc3c2)C[C@@H](C)C(=O)[C@H](C)[C@H]2NC(=O)O[C@@]21C [Example 17]" measurement_unit=µg/mL value_observed=0.03

# ---- query compound ----
What does the record list as MIC for CC[C@H]1OC(=O)[C@H](C)[C@@H](O[C@H]2C[C@@](C)(OC)[C@@H](O)[C@H](C)O2)[C@H](C)[C@@H](O[C@@H]2O[C@H](C)C[C@H](N(C)C)[C@H]2O)[C@](C)(O)C[C@@H](C)C(=O)[C@H](C)[C@@H](O)[C@]1(C)O [Ery. A, Erythromycin A, reference compound] ?
0.06
